These data points were gathered from ChEMBL document CHEMBL5506012.

target: Apoptosis regulator Bcl-2 (Homo sapiens, UniProt P10415); assay: Binding affinity to Bcl-2 (unknown origin) expressed in Escherichia coli BL21 (DE3) assessed as inhibition constant by fluorescence polarization assay
Sequence (P10415 whole entry): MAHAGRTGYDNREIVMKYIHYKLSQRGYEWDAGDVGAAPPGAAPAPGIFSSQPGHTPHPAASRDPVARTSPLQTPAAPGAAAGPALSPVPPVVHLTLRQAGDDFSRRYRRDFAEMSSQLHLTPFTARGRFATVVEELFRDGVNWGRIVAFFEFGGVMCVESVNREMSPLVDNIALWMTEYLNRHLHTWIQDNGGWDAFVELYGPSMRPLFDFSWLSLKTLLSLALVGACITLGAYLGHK
quantity.measured: pKi
Would you please state pKi, meaning minus log10 of the concentration in mol/L, as a bare number?

Entry COCCOCCn1nc(C)c2c1CSCc1cc(n(C)n1)CCc1cc(c3ccccc3c1)OCCCn1c(C(=O)O)c(C)c3c-2c(Cl)ccc31 — recorded pKi = 5.43

---

biological target: Induced myeloid leukemia cell differentiation protein Mcl-1 (Homo sapiens, UniProt Q07820); experiment: Binding affinity to Mcl-1 (unknown origin) assessed as inhibition constant
Sequence (Q07820 whole entry): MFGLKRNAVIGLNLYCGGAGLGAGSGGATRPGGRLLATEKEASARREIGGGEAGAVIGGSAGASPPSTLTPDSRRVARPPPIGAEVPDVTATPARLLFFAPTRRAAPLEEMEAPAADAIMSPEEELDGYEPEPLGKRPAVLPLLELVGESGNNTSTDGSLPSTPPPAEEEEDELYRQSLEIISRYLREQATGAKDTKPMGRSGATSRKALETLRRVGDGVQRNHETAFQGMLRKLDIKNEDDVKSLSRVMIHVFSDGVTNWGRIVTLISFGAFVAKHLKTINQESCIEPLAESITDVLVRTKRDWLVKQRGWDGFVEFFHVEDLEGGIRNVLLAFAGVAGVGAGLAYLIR
quantity.measured: pKi
Would you please state pKi, meaning minus log10 of the concentration in mol/L, as a bare number?

Entry CCC1CC/C=C/C(O)C2CCC2CN2CC3(CCc4cc(Cl)ccc43)COc3ccc(cc32)C(=O)NS1(=O)=O (configuration not stated) — recorded pKi = 10.30

---

biological target: Induced myeloid leukemia cell differentiation protein Mcl-1 (Homo sapiens, UniProt Q07820); experiment: Binding affinity to human Mcl-1 assessed as dissociation constant by Surface Plasmon Resonance assay
quantity.measured: pKd
Would you please state pKd, meaning minus log10 of the concentration in mol/L, as a bare number?

Entry CCc1sc2ncnc(N[C@@H](C)C(=O)O)c2c1CC — recorded pKd = 9.72

---

test: Oral bioavailability in CD-1 mouse at 10 mg/kg, […]; format: ADME, organism-based; conditions: in vivo
quantity.measured: bioavailability (%)
// return numeric value only (unit: %, not printed)

Entry CC1(C)CCC(c2ccc(Cl)cc2)=C(CN2CCN(c3ccc(C(=O)NS(=O)(=O)c4ccc(N[C@H](CCN5CCOCC5)CSc5ccccc5)c(S(=O)(=O)C(F)(F)F)c4)cc3)CC2)C1 — recorded bioavailability = 57

---

target: Bcl-2-like protein 1 (Homo sapiens, UniProt Q07817); assay: Binding affinity to Bcl-XL (unknown origin) assessed as inhibition constant by fluorescence polarization assay
Sequence (Q07817 whole entry): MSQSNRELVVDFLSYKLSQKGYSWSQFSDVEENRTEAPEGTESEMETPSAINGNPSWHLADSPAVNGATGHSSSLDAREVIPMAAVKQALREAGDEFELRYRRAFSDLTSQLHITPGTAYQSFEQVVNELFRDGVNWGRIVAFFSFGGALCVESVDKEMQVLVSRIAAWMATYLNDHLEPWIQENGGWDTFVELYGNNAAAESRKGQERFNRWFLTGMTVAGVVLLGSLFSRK
quantity.measured: pKi
Would you please state pKi, meaning minus log10 of the concentration in mol/L, as a bare number?

Entry COCCOCCn1nc(C)c2c1CSCc1cc(n(C)n1)CCc1cc(c3ccccc3c1)OCCCn1c(C(=O)O)c(C)c3c-2c(Cl)ccc31 — recorded pKi = 5.30

---

molecular target: Induced myeloid leukemia cell differentiation protein Mcl-1 (Homo sapiens, UniProt Q07820); experiment: Inhibition of Mcl-1 (unknown origin)
quantity.measured: IC50 (nM)
// return numeric value only (unit: nM, not printed)

Entry O=C(NS(=O)(=O)Cc1ccccc1)c1ccc2c(c1)N(CC1CCC1)CC(c1ccc(Cl)cc1Cl)O2 (stereo unspecified) — recorded IC50 = 300

---

biological target: Induced myeloid leukemia cell differentiation protein Mcl-1 (Homo sapiens); experiment: Inhibition of human recombinant Mcl-1 by Surface Plasmon Resonance assay
quantity.measured: pIC50
Would you please state pIC50, meaning minus log10 of the concentration in mol/L, as a bare number?

Entry O=C(O)CSc1cc(NS(=O)(=O)c2ccc(Br)cc2)c2ccccc2c1O — recorded pIC50 = 6.51

---

molecular target: Apoptosis regulator Bcl-2 (Homo sapiens); experiment: Binding affinity to human Bcl-2 assessed as inhibition constant SPR assay
quantity.measured: Ki

Entry Cc1c(-c2c(-c3ccc(F)o3)sc3ncnc(O[C@H](Cc4ccccc4OCc4ccnn4CC(F)(F)F)C(=O)O)c23)ccc(OCCN2CCN(C)CC2)c1Cl — recorded Ki = > 10 µM
